Measured on: Gal(a1-3)Gal(b1-4)GlcNAc(b1-6)GalNAc
Protocol text: glycan array binding signal (z-score within array); higher = stronger binding
Applied conditions: glycan notation: IUPAC condensed, linker removed
Shown is part of a subset that was picked to be rich in the strongest signals.
Please note: label 1 applies when glycan array binding signal (z-score) is 0.3 or greater, and label 0 applies otherwise.

| Binder | Discrete label |
| --- | --- |
| rMpL (Macrolepiota procera) (protein) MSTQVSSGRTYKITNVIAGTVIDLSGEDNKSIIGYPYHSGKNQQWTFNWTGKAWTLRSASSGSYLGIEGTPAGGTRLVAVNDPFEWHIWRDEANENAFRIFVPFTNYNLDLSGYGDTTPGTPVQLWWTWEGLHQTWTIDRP | label 0 |
| EULS2 M4 (Oryza sativa) (protein) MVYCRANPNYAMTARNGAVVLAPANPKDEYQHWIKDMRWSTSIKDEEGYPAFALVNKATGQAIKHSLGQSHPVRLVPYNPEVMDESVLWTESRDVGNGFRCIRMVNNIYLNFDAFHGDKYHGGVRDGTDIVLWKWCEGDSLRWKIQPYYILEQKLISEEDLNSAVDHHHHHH | label 1 |
| DC-ASGPR Long (Homo sapiens) (protein) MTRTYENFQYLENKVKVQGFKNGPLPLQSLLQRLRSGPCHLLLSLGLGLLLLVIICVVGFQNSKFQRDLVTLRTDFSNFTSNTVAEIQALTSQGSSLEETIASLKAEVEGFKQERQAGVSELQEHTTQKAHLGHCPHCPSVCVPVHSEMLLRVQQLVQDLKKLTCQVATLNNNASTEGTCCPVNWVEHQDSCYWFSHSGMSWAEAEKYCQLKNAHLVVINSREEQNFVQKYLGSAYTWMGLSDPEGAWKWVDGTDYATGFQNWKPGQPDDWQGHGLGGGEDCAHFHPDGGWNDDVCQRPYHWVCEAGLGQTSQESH | label 1 |
| ACA (Amaranthus caudatus) (protein) MAGLPVIMCLKSNNNQKYLRYQSDNIQQYGLLQFSADKILDPLAQFEVEPSKTYDGLVHIKSRYTNKYLVRWSPNHYWITASANEPDENKSNWACTLFKPLYVEEGNMKKVRLLHVQLGHYTQNYTVGGSFVSYLFAESSQIDTGSKDVFHVIDWKSIFQFPKRYVTFKGNNGKYLGVITINQLPCLQFGYDNLNDPKVAHEMFVTSNGTICIKSTYMNKFWRLSTDDWILVDGNDPRETNEAAALFRSDVHDFNVISLLNMQKTWFIKRFTSGKPGFINCMNAATQNVDETAILEIIELGSNN | label 0 |
| DC-ASGPR L+GEE (Homo sapiens) (protein) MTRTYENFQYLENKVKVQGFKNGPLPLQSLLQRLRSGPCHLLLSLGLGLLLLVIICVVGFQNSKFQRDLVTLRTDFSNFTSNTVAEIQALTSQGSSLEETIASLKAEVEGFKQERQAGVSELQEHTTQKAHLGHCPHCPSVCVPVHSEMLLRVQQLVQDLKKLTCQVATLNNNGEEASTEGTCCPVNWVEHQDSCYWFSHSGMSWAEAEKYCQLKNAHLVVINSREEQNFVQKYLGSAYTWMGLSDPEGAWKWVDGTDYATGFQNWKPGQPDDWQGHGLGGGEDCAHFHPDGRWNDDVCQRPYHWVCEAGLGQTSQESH | label 1 |
| Lb MiSSP8 (Laccaria bicolor) (protein) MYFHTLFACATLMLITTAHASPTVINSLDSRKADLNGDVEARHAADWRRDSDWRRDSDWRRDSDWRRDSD | label 0 |
